assay-protocol: protein stability index of a GFP-peptide fusion (GPS, HEK-293T) (PSI 1-6); higher = more stable;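 note: 24-mer peptide tiles fused after GFP, lentivirally expressed, FACS-sorted into six equal bins by GFP/DsRed ratio, decoded by Illumina sequencing, PSI is the read-weighted mean bin number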
particulars: treatment: MLN4924 1 uM, 8 h; c terminus: a fixed tail appended
quantity: protein stability index

1) IELLTGETWNPFKLQYQLRNVRER [GOLPH3L] | 2.49
2) TIDDTISKFRRKDREDSPERCSDS [CLINT1] | 5.44
3) EMTPEKFSVLMEKLCKKGLAATTS [FANCE] | 2.88
4) GRVEVLKNGEWGTVCDDKWDLVSA [LOXL2] | 3.56

====

assay-protocol: protein stability index of a GFP-peptide fusion (GPS, HEK-293T) (PSI 1-6); higher = more stable
particulars: treatment: DMSO; c terminus: a fixed tail appended
The label depends only on protein stability index: label 1 if it is at least 3, label 0 if it is smaller.

1) VTRQPRNLQDLCRIKIRQCIGLQN [ASB7] | label 1
2) RFGQTIQSFTLRGDHRSPASAQKF [NET1] | label 1
3) YLSKTYCVDATRETNRLGRLINHS [KMT5A] | label 0
4) SRVILEIDNARLAADDFRLKYENE [KRT15] | label 1
5) PGPHSAKQDSYEQGDSSQQSLKGH [ZC2HC1C] | label 1
6) NAGTGLVINQADVRNNRSIIKQLK [PLD5] | label 1
7) DNWKSQVEPETRAVIRWMHSFNFV [CPN1] | label 0

====

assay-protocol: protein stability index of a GFP-peptide fusion (GPS, HEK-293T) (PSI 1-6); higher = more stable
particulars: treatment: DMSO; c terminus: a fixed tail appended
Returns one of satisfied or not satisfied; satisfied when protein stability index is >= 4.

1. ISDNPERYSTNLSNHVDDFTTFRG [EDNRA] | not satisfied
2. TCECLEGFRLAEDGKRCRRKDVCK [MATN2] | satisfied
3. TLGQAWQGYVSDIRRFLSAFHEPQ [DFFB] | not satisfied
4. FSGSNEVDQMNRIVEVLGIPPAAM [DYRK1B] | not satisfied
5. AQQFALMAPLLFNGCRSGEIFAID [DCAF4] | not satisfied
6. IKIFKYISFNKTMTQLSSTLARCA [PKD2L1] | not satisfied
7. MCRVDLRGHMPEWYTKSFGHLCAA [DLC1] | not satisfied
8. DRLNEQEGVPSVFNPPPSRPLQVN [FAF2] | satisfied
9. MSKQRERQLRRRALHPERAMDNHS [RETREG3] | satisfied
10. NQEYKMLLDIKTRLEQEIATYRSL [KRT13] | not satisfied
11. EKSTVVEGGEVRFNGKGKKIRKPR [DLX1] | satisfied
12. GNISGEFWLGNEALHSLTQAGDYS [TNXB] | not satisfied
13. AKQQKFIKAVTHQVKFGQQNPRQV [ZC3H15] | not satisfied
14. TSDSEGAHVNTLHSGTKRDPKEDV [PHTF1] | satisfied
15. PLHELITMNRRVCVLMLLAAWIGG [OR4A15] | not satisfied
16. RNSKASAYCLDQGAEDGDRAILYP [GALNT9] | satisfied
17. QEYFERHRWPPVWYLKEEDHYQRV [RHOBTB1] | not satisfied
18. LPQPLAAHAGAVHNGKIYISGGVH [KLHL14] | not satisfied
19. GPWQLNVFVCRVSAVLFYVNMYVS [P2RY14] | not satisfied
20. QGGSLPSEEKGHPQEESEESNVSM [CHGB] | satisfied
21. VYYIFERLCAPLFRNIKQEPFSAR [SOAT1] | not satisfied
22. WEHSAPQRLPRSAPPGSLVTKVTA [PCDHGC5] | not satisfied
23. ELRLVFGPLGDQLHAQLRDLTSSS [ELF3] | not satisfied
24. NLMSLLMAVRPSLPESGLLSVLQI [FANCE] | not satisfied
25. PDQVAPFTFLQPLPLSPGVLSSTP [ATF4] | not satisfied
26. SDGGQKNKPREHIIDCGDIVWSLA [WSB1] | not satisfied
27. PICSANHKESKMTIFEKENFIGRQ [CRYBA1] | not satisfied
28. MSDYRGFGIGSEILKNLSQVAMRC [SAT1] | not satisfied
29. VHQRGSSTAKKEDINLSVRKLLNR [TRIP13] | not satisfied
30. SWIKMTKLEYEEIALDLTPVIEEL [FAN1] | not satisfied
31. IKIRPGEFEQFESTIGFKLPNHRA [EPB41L3] | not satisfied
32. LDKELRAMLREKFPEFCSSPSPPV [INTS3] | not satisfied
33. QAQDEVEQERRLSEARLSQRDLSP [FCHSD1] | satisfied
34. PKGSKGKEKDSPFKPKLYKGDRGL [RBBP5] | not satisfied
35. PTPAKRRSSALWSEMLDITMKESL [NET1] | not satisfied
36. GHAAPGTDAGKAFCMFYAVLGIPL [KCNK9] | not satisfied
37. WATIEGLVELLQPFKQVAEMLSAS [ZBED1] | not satisfied
38. EKSQLIMQAEAEAASVRMRGEAEA [FLOT1] | satisfied
39. GAKDHASIQMNVAEVSWEPGRREG [RPS21] | satisfied
40. SQNSSLVQHERIHTGDKPYKCAEC [ZNF8] | satisfied
41. KSKTRSLLKRMESLKLKSSHHSKH [DLC1] | not satisfied
42. EEKVRDLLWAKFTNSDTPTSFNHM [TOR1AIP2] | not satisfied
43. KDVRAPSRPAVGPPQPGCPAFIIV [ZSWIM9] | not satisfied

====

assay-protocol: protein stability index of a GFP-peptide fusion (GPS, HEK-293T) (PSI 1-6); higher = more stable
particulars: treatment: DMSO; c terminus: a fixed tail appended
quantity: protein stability index

1. QLQCSPAELQAELLHSQARLAELE [FBF1] | 3.88
2. DAENQKNWLDPAKEIKKQVRSGAW [EPB41L3] | 3.55
3. IFRSYSRGAQGILLVYDITNRWSF [RAB40C] | 2.52
4. QKEVLPSMRKIVATWMLEVCEEQK [CCND1] | 3.01
5. RSRGKVLKTKDGKLPFCAMGVSSV [CPOX] | 3.4
6. LRDKIMATTIDNSRVILEIDNARL [KRT15] | 2.59
7. GLVLLKHALGSPEKVKACQGQYET [TBC1D10A] | 2.74
8. YNRGEHPIFVNSPTLDAPGGRALV [SMAD6] | 3.13
9. KADTKGFCNISLFEDLPLQEPQSP [PLAGL1] | 4.46
10. GYFAFMLFRKRLGSMILAFRPRPN [GDAP1] | 2.69
11. EVLRSEAGIELIIEDDIRPEKQKR [MYBL2] | 4.21
12. RQVVDILWSDPMAQEGCKANTIRG [PPEF2] | 3.14
13. PFSSSSPENVEDSGLDSPSHAAPG [FCHO1] | 5.5
14. IPLYPLGCLAEAVSVIQSIPIFNE [HACD3] | 2.7
15. IRQEFDKLREFLRVEEQAILDAMA [TRIM35] | 2.91
16. AQDDDRLREERKKAKKNKDKYVGV [CLINT1] | 5.27
17. SQESALGNTVPAVEPGTPPLDILA [DNAAF3] | 5.17
18. RFPLDSAQDPDVGTNTVSFYTLSP [PCDHGC5] | 3.68
19. PRPQSEESWDEEDKRNYPSLELDK [CHGB] | 5.52
20. SKKGLSFFAFEHSEEYQQAQHKFL [TCF25] | 2.85
21. ALTGHLRTHSVIKEETNHSEMAED [IKZF1] | 5.38
22. DSQEAQSPGHSSAGQEGEDTLRRR [TOR1AIP2] | 5.58
23. APDRATAVATASRLGPYVLLEPEE [TRIB3] | 5.04
24. ASLTIPLVPETEDDRKLAALLKFH [YJU2B] | 3.05
25. RVPQTWSKRLYGVYDNEKKLQLQL [PLD5] | 2.39
26. PPLEDFEVLDGVEDAEGEEEEEEE [FKBP8] | 5.69
27. SDLPTPQAIEPQAIVQQVPAPSRM [SNX8] | 5.21
28. VNPNGQKQQLVDAFLKLAKQRSVC [FAN1] | 3.16
29. LGQILVSVAGWSLFSLNVISLTCV [SLC19A2] | 3.3
30. MLDSALRFQAMEETHLRHMKALLG [FCHO1] | 2.23
31. PSRKYISTKAIPEKYGAVREVILK [ZBED1] | 2.87
32. KSSSSSSSSSSSSSSSSSSSSSGP [TMEM40] | 5.29
33. RELDAISTNEEEKEENEAESDVKH [PRIM1] | 5.57
34. QVLNETRNQYEALVETNRREVEQW [KRT33B] | 4.24
